target: HLA-A*03:01; experiment: IEDB peptide-MHC binding, purified MHC/competitive/radioactivity; filed as Kd, often an IC50 or EC50 that approximates it; bounds were set here for any values at or beyond the usual limits of such assays; conditions: source organism: Lassa virus Josiah
measured parameter: Kd

1. SVLRAVLPR
208 nM

====

molecular target: HLA-A*01:01; assay: IEDB peptide-MHC binding, purified MHC/competitive/radioactivity; filed as Kd, often an IC50 or EC50 that approximates it; bounds were set here for any values at or beyond the usual limits of such assays; details: source organism: Dengue virus 1 Brazil/97-11/1997
pKd: −log10 of the molar value.
measured parameter: pKd

1) YTQMCDHRL
5.24

====

target: HLA-A*69:01; experiment: IEDB peptide-MHC binding, purified MHC/competitive/fluorescence; filed as Kd, often an IC50 or EC50 that approximates it; bounds were set here for any values at or beyond the usual limits of such assays; conditions: source organism: Orthohantavirus andesense
measured parameter: Kd

1. RMMATKDSF
≥ 20 µM

====

molecular target: HLA-A*02:12; experiment: IEDB peptide-MHC binding, purified MHC/direct/fluorescence; filed as Kd, often an IC50 or EC50 that approximates it; bounds were set here for any values at or beyond the usual limits of such assays; conditions: source organism: Araucaria virus
Kd reference
measured parameter: Kd

1. GFAIPIILK
≥ 20 µM
2. LYVAGVPEL
≥ 20 µM

====

molecular target: HLA-A*11:01; assay: IEDB peptide-MHC binding, purified MHC/competitive/fluorescence; bounds were set here for any values at or beyond the usual limits of such assays; conditions: source organism: Vaccinia virus Copenhagen
pIC50: −log10 of the molar value.
measured parameter: pIC50

1) SAGESSILR
5.85
2) VTAASPMLY
5.93

====

molecular target: HLA-A*03:01; assay: IEDB peptide-MHC binding, purified MHC/competitive/radioactivity; filed as Kd, often an IC50 or EC50 that approximates it; bounds were set here for any values at or beyond the usual limits of such assays; settings: source organism: Vaccinia virus WR
pKd: −log10 of the molar value.
Parameter threshold = 7. Response is fulfilled when pKd meets or exceeds it, else not fulfilled.

1) SSFIVPEFAK
fulfilled
2) LACTDPSER
not fulfilled
3) TSVSAKQLR
not fulfilled
4) SITPNNLNK
not fulfilled
5) IINFTISMR
fulfilled
6) QIFNEDTSYY
not fulfilled
7) FFAYVMNIER
not fulfilled
8) KFNDYRKQMY
not fulfilled

====

Each record here notes measured pKd.
biological target: HLA-A*01:01; experiment: IEDB peptide-MHC binding, purified MHC/direct/fluorescence; filed as Kd, often an IC50 or EC50 that approximates it; bounds were set here for any values at or beyond the usual limits of such assays; details: source organism: Coxiella burnetii
pKd: −log10 of the molar value.
measured parameter: pKd

1. YHFDPVHHL
≤ 4.70
2. VFFKQWFEK
≤ 4.70
3. PEIRRWIIF
≤ 4.70

====

target: HLA-B*46:01; assay: IEDB peptide-MHC binding, purified MHC/direct/fluorescence; filed as Kd, often an IC50 or EC50 that approximates it; bounds were set here for any values at or beyond the usual limits of such assays; conditions: source organism: Influenza A virus (A/goose/Guangxi/1097/2004(H5N1))
pKd: −log10 of the molar value.
measured parameter: pKd

1) KYTSGRQEK
≤ 4.70
